molecular target: Dickkopf-related protein 1 (Homo sapiens); assay: DKK1 binders on small-molecule microarrays, primary screen, biochemical, small-molecule microarray, 635 nm fluorescence scan (AID 1106); details: DKK1 binding, higher = more signal;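 further: score merges emission near 667 nm with signal to noise over three replicate slides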
Metric Name: composite z-score

- COC(=O)CC=C[C@@H](C)[C@@H](C=NO[C@@H](C)c1cn([C@H](CO)Cc2ccccc2)nn1)NS(=O)(=O)c1ccc(C)cc1: 0.47
- CC(C)C[C@H](NC(=O)CCC1CC(OC(=O)NCc2cccc3ccccc23)CC2(CCCC(COC(=O)NCc3ccccc3)O2)O1)C(=O)NCC(c1ccccc1)c1ccccc1 (stereo partly drawn): 0.861
- CC(C)=CCCC(C)=CCON=C1C[C@@H](O)[C@@H](O)[C@@H]2[C@@H]3C(=O)N(C4CCCCC4)C(=O)[C@@H]3CC[C@@H]12: 0.996

====

assay: small-molecule microarray binders of probe aShh, primary screen, biochemical, biotinylated probe, 635/667 nm fluorescence (AID 1114); conditions: higher = more signal;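 further: probe is biotin-labelled aShh protein from a stem cell growth factor screen; measures binding of labelled protein to compounds printed on the slide; score merges feature fluorescence at 667 nm with signal-to-noise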
Kind request: treat -0.1 as inclusive, so composite z-score at -0.1 or higher is YES, anything lower is NO.

* COc1cccc([C@H]2Oc3ccc(OC)cc3C(=NO[C@@H](C)c3cn([C@H](CO)Cc4ccccc4)nn3)[C@@H]2O)c1 | YES
* CCCCC#C[C@@H]1C=C[C@H](Oc2cc(OC)c(OC)c(OC)c2)[C@@H](COC(=O)OCC)O1 | NO
* CCN1C(=O)[C@H]2[C@H]3[C@H](O)[C@H](O)CC(=NNC(=O)OCc4ccc(OC)cc4)[C@@H]3CC[C@H]2C1=O | YES
* CCCNC(=O)OC[C@H]1O[C@H](CCON=C(C)CCC(=O)OC[C@H]2O[C@H](c3ccccc3)C=C[C@@H]2Oc2ccc(OC)cc2)C=C[C@@H]1Oc1ccc(OC)cc1 | NO
* COc1cccc([C@H]2Oc3ccc(OC)cc3C(=NOC[C@@H](C)[C@H](OCc3ccccc3)C(C)C)[C@@H]2O)c1 | YES
* C[C@@H](c1ccccc1)N1C(=O)[C@H]2[C@H]3[C@H](O)[C@H](O)CC(=NO[C@@H]4O[C@H](CO)[C@@H](O)[C@H](O)[C@H]4O)[C@H]3CC[C@H]2C1=O | YES
* CC(CCN1CCc2nc(-c3ccccc3)c(-c3ccccc3)cc2C1)=NOC[C@@H](O)[C@H]1O[C@@H]2OC(C)(C)O[C@@H]2[C@H]1O | YES
* COc1ccc(O[C@H]2C=C[C@@H](c3ccccc3)O[C@@H]2CON=CC[C@@H]2C=C[C@H](OC(C)=O)[C@@H](COC(C)=O)O2)cc1 | NO
* CC(C)=CCCC(C)=CCON=C1C[C@@H](O)[C@@H](O)[C@@H]2[C@@H]3C(=O)N(C[C@@H]4CCCO4)C(=O)[C@@H]3CC[C@H]12 | YES
* O=C1OCCC=C1C(O)CCc1ccccc1 (stereo not drawn) | NO
* C#CCCCON=C1[C@H]2CCn3c(=O)n(-c4ccccc4)c(=O)n3[C@H]2[C@H](O)[C@@H]2O[C@H]12 | YES
* C#CCCCON=C1C[C@@H](O)[C@@H](O)[C@@H]2[C@@H]3C(=O)N(c4ccc(F)cc4F)C(=O)[C@@H]3CC[C@H]12 | YES
* C[n+]1ccc(-c2ccc(CO)cc2)cc1 | YES
* CC(=O)Nc1ccc([C@@H]2N[C@H](C(=O)O)CC[C@H]2C)cc1 | NO
* COCCNC(=O)OCC1CCCC2(CC(OC(=O)NCc3ccc4c(c3)OCO4)CC(CCC(=O)N[C@@H](C)C(=O)OC)O2)O1 (stereo partly drawn) | YES
* Cc1ccc(S(=O)(=O)N[C@H]2COC(=O)CC=C[C@H](C)[C@@H](NS(=O)(=O)c3ccc(C)cc3)COC(=O)CC=C[C@@H]2C)cc1 | NO
* O=C1[C@H]2[C@H]3[C@H](O)[C@H](O)CC(=NOC[C@@H](O)COCc4ccco4)[C@H]3CC[C@H]2C(=O)N1c1ccc(F)cc1F | NO
* COC(=O)CC=C[C@@H](C)[C@@H](C=NOCC[C@@H]1C=C[C@H](OC(C)=O)[C@@H](COC(C)=O)O1)NS(=O)(=O)c1ccc(C)cc1 | YES
* CCc1cc2c(nc1CC)CCN(CCC(C)=NO[C@H](C)c1cn([C@@H]3COC[C@H]3O)nn1)C2 | YES
* C[C@H]1CC[C@H]2C(=O)O[C@H](COc3ccc(C(C)(C)C)cc3)CN2[C@@H]1c1ccc(Br)cc1 | YES
* CO[C@@H]1COC(=O)[C@H](CCSC)NC(=O)CC=C[C@@H](C)COC(=O)[C@H](C)NC(=O)CC=C[C@H]1C | NO
* CCOC(=O)[C@H](CC(C)C)NC(=O)CCC1CC(OC(=O)NCCc2ccc(F)cc2)CC2(CCCC(COC(=O)NCCc3ccc(Cl)cc3)O2)O1 (stereo partly drawn) | NO
* CCOC(=O)[C@H](Cc1ccccc1)NC(=O)CCC1CC(OC(=O)NCCc2ccc(F)cc2)CC2(CCCC(COC(=O)NCC3CCCCC3)O2)O1 (stereo partly drawn) | NO
* O=C1[C@H]2[C@H]3[C@H](O)[C@H](O)CC(=NO[C@@H]4O[C@H](CO)[C@@H](O)[C@H](O)[C@H]4O)[C@H]3CC[C@H]2C(=O)N1c1cccc(Oc2ccccc2)c1 | NO
* COc1ccc(COC(=O)NN=C2C[C@@H](O)[C@@H](O)[C@@H]3[C@@H]4C(=O)N(C5CCCCC5)C(=O)[C@@H]4CC[C@H]23)cc1 | NO
* CO[C@H]1COC(=O)CC=C[C@@H](C)[C@H](OC)COC(=O)[C@@H]2CCCN2C(=O)CC=C[C@@H]1C | NO
* O=C(NN=C1C[C@@H](O)[C@@H](O)[C@@H]2[C@@H]3C(=O)N(C4CCCCC4)C(=O)[C@@H]3CC[C@@H]12)OCc1ccccc1 | YES

====

assay: small-molecule binders of probe aNOTCH3, primary screen, biochemical, small-molecule microarray, 635/667 nm fluorescence (AID 1120); details: higher = more signal;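 further: probe is a biotin-tagged antibody raised against NOTCH3 rather than NOTCH3 protein; score merges spot fluorescence near 667 nm with spot signal to noise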
Kind request: treat -0.09 as inclusive, so composite z-score at -0.09 or higher is y, anything lower is n.

• O=C1[C@H]2[C@H]3[C@H](O)[C@H](O)CC(=NOCc4ccccc4)[C@@H]3CC[C@H]2C(=O)N1C[C@@H]1CCCO1 = n
• CC1O[C@H]2C3=C(C(=O)[C@@H]4O[C@@H]4[C@H]3O)[C@@H]1C1[C@@H](C)OC=C3[C@H](O)C4O[C@@H]4C(=NOCc4ccccc4)[C@]312 (some centres not stated) = n
• CCOC(=O)[C@H](CC(C)C)NC(=O)CCC1CC(OC(=O)NCc2ccc3c(c2)OCO3)CC2(CCCC(COC(=O)NCC(c3ccccc3)c3ccccc3)O2)O1 (some centres not stated) = y
• COC(=O)CC=C[C@@H](C)[C@@H]1C=C[C@H](O)[C@@H](CO)O1 = n
• Cc1ccc(S(=O)(=O)N[C@H]2COC(=O)CC=C[C@H](C)[C@@H](NS(=O)(=O)c3ccc(C)cc3)COC(=O)CC=C[C@@H]2C)cc1 = y
• C#CCCCON=C1[C@H]2CCn3c(=O)n(C)c(=O)n3[C@H]2[C@H](O)[C@@H]2O[C@H]12 = y

====

assay: HepG2 liver cancer cell viability effects, profiling panel, resazurin fluorescence, 24 h, PK04 Diversity Set (AID 1172); settings: higher = more signal; further: test concentration not given here
Metric Name: z-score

- CC(C)CON=C1C[C@@H](O)[C@@H](O)[C@@H]2[C@@H]3C(=O)N(c4ccc(F)cc4F)C(=O)[C@@H]3CC[C@H]12: 0.806
- COC(=O)C1=C(C)N(Cc2ccccc2)[C@]23O[C@](C(=O)OC)(C(=O)N2[C@@H]1c1ccccc1)C(C(=O)OC)=C3C(=O)OC: -0.0934
- CCCNC(=O)OC[C@H]1O[C@H](CCON=C(C)CCN2CCc3nc(CC)c(CC)cc3C2)C=C[C@@H]1Oc1ccc(OC)cc1: -1.09
- COC(=O)CC=C[C@@H](C)[C@@H](C=NO[C@H](C)c1cn([C@@H]2COC[C@H]2O)nn1)NS(=O)(=O)c1ccc(C)cc1: -1.37

====

assay: PSAC antagonists in infected red cells, primary screen, cell-based, P. falciparum Indochina, OD700, 18 h (AID 1157); settings: P. falciparum Indochina infected erythrocytes, osmotic lysis OD700, 18 h; higher = more signal, called active from +8 up or from −8 down
Form field: z-score (one value per entry).
Metric Name: z-score

* C[C@@H]1CC[C@H]2C(=O)O[C@@H](COc3ccc(C(C)(C)C)cc3)CN2[C@@H]1c1ccc(Br)cc1 | 0.54
* COc1cccc([C@H]2Oc3ccc(OC)cc3C(=NO[C@@H](C)c3cn([C@H](CO)Cc4ccccc4)nn3)[C@@H]2O)c1 | 0.611
* COC(=O)[C@H](C)NC(=O)CCC1CC(OC(=O)NCc2cccc3ccccc23)CC2(CCCC(COC(=O)NCC(c3ccccc3)c3ccccc3)O2)O1 (some centres undefined) | -0.242
* CCCNC(=O)OC[C@H]1O[C@H](c2ccccc2)C=C[C@@H]1Oc1ccc(OC)cc1 | 0.0261
